Each entry below lists one item and its recorded IC50 value.
experiment.description: DNDI: Cytotoxicity against L-6 rat myoblasts from skeletal muscle cells
recorded.conditions: L6 rat skeletal muscle myoblast cells, IC50

# molecule, bound.type, IC50 / µM
records = [
    ("FC(F)(F)c1ccc(C(c2cccnc2)N2CCC(Oc3cccc(Cl)c3)CC2)cc1 (stereo not given)", "=", 61.2),
    ("FC(F)(F)Cn1cc(C(NC2CCN(c3ccc(C(F)(F)F)cc3)CC2)c2cccnc2)cn1 (stereo not given)", "=", 71.2),
    ("CC(=O)NC1CCN(C(c2cnccn2)c2ccc(F)cc2F)CC1 (stereo not given)", ">", 100),
    ("N#Cc1cccc(N2CCC(NC(c3cccnc3)c3ccc(Cl)cc3F)CC2)c1 (stereo not given)", "=", 55.4),
    ("Clc1ccc(C(NCC2CCCCC2)c2cccnc2)cc1 (stereo not given)", "=", 59.7),
    ("CCn1cc(C(NC2CCN(c3ccc(F)c(F)c3)CC2)c2cccnc2)cn1 (stereo not given)", "=", 62.3),
    ("O=C(C1CCC1)N1CCN(C(c2cncnc2)c2ccc(Cl)cc2F)CC1 (stereo not given)", ">", 100),
    ("CCCCc1ccc(C(O)(c2ccc(Cl)cc2)c2ccc(Cl)cc2)cn1", "=", 54.7),
    ("N#Cc1ccc(C(c2cccnc2)N2CCC(NC(=O)c3ccc(C(F)(F)F)cc3F)CC2)cc1 (stereo not given)", "=", 76.8),
    ("Cc1ncoc1C(=O)N1CCC(NC(c2ccc(C(F)(F)F)cc2)c2cccnc2)CC1 (stereo not given)", ">", 100),
]
